Every entry's value here was drawn from paper PMC5217663.

Observed MIC, system Vibrio cholerae SG24 (1).
Could you give me the number in µg/mL? Just the number is fine.

[[record]]
molecule = "COC(=O)C1=CO[C@@H](O)[C@H]2[C@@H]1[C@H](O)C[C@]2(C)O"
target_or_system = "Vibrio cholerae SG24 (1)"
metric = "MIC"
reported_measurement = 128


// switching to the query molecule
IN: # input molecule: CC1(C)S[C@@H]2[C@H](NC(=O)[C@H](N)c3ccccc3)C(=O)N2[C@H]1C(=O)O [Ampicillin, reference compound] ; wanted: its MIC
OUT: 16

----------
# System: Vibrio cholerae PC2
# EXPERIMENTAL_PROTOCOL: Broth microdilution MIC/MBC
# Format: cell-based
# CONDITION_PARAMETERS: Vibrio cholerae, PC2
METRIC: MBC (µg/mL)
Write the value in µg/mL as a bare number.

[[record]]
molecule = "COC(=O)C1=CO[C@@H](O)[C@H]2[C@@H]1CC[C@]2(C)O [compound 7]"
reported_measurement = 32


IN: So what does the record say about MBC for COC(=O)C1=COC(O)C2C(COC(=O)C3=COC(OC4OC(CO)C(O)C(O)C4O)C4C(COC(C)=O)=CCC34)=CCC12 (stereo not drawn) [Compound 2, canthiumoside 2] ?
OUT: 256
